# System: KM12
# assay overview: Growth inhibition of human KM12 cells at 10 uM relative to control
# Assay type: functional
# details: read-out: GI
Task for the reader: assign each of the following molecules its reported inhibition of growth at 10 µM.

**Query** Give reported inhibition of growth at 10 µM for COc1ccc(/C=C/C2=CC(c3ccc(OC)c(OC)c3)N3C(C)=CSC3=N2)cc1OC (configuration not stated) (KM12)
**Result** < 10%

**Query** Report the value of inhibition of growth at 10 µM obtained on KM12 for `COc1cccc2c1C(=O)c1c(O)c3c(c(O)c1C2=O)C[C@@](O)(C(=O)CO)C[C@@H]3O[C@H]1C[C@H](N)[C@H](O)[C@H](C)O1` .
**Result** 95.8%

**Query** Supply inhibition of growth at 10 µM measured with KM12 for CC1=CN2C(=NC(/C=C/c3ccc(C)cc3)=CC2c2ccc(C)cc2)S1 (configuration not stated) .
**Result** < 10%

**Query** Enter recorded inhibition of growth at 10 µM with KM12 for COc1ccc(/C=C/C2=CC(c3ccc(OC)cc3)N3C=CSC3=N2)cc1 (configuration not stated) here.
**Result** < 10%

**Query** Please report inhibition of growth at 10 µM with KM12 for item CCOC(=O)C1=CSC2=NC(/C=C/c3ccc(OC)c(OC)c3)=CC(c3ccc(OC)c(OC)c3)N12 (configuration not stated) .
**Result** < 10%

For each of the items listed, what is its inhibition of growth at 10 µM?
1. CC1=CSC2=NC(/C=C/c3cccs3)=CC(c3cccs3)N12 (configuration not stated)
2. COc1ccc(/C=C/C2=CC(c3ccc(OC)c(OC)c3)N3C=CSC3=N2)cc1OC (configuration not stated)
3. CC1=CN2C(=NC(/C=C/c3ccc(Cl)cc3)=CC2c2ccc(Cl)cc2)S1 (configuration not stated)
4. COc1cc(/C=C/C2=CC(c3cc(OC)c(OC)c(OC)c3)N3C(C)=CSC3=N2)cc(OC)c1OC (configuration not stated)
5. C1=CN2C(=NC(/C=C/c3cccs3)=CC2c2cccs2)S1 (configuration not stated)
6. CCOC(=O)C1=CSC2=NC(/C=C/c3ccc(Cl)cc3)=CC(c3ccc(Cl)cc3)N12 (configuration not stated)

**Result**
< 10%
< 10%
< 10%
< 10%
< 10%
< 10%

**Query** Look up and report inhibition of growth at 10 µM, with KM12 as system, for CCOC(=O)C1=CSC2=NC(/C=C/c3cc(OC)c(OC)c(OC)c3)=CC(c3cc(OC)c(OC)c(OC)c3)N12 (configuration not stated)
**Result** 22.7%
